From: paper PMC5017749

- MEASUREMENT DESCRIPTION: Plasma and brain pharmacokinetics after single oral or intravenous dosing of mice
- Type: in vivo
- TEST SETTINGS: male, C57BL/6, mouse, brain; IV dosing, FTY720-C2 1 mg/kg or FTY720-Mitoxy 2 mg/kg; first sampling time point; read-out: Tmax / time of highest concentration in brain (converted)
REPORTED METRIC: Tmax (min)
Just the number please, in min, no unit attached.

query: Please report Tmax for the following molecule: `CCCCCCCCc1ccc(CCC(CO)(CO)NC(C)=O)cc1`
result: 5
